We begin with a simple list: items and their reported pKi.
# measured_target: human growth hormone secretagogue receptor (hGHS-R1a) (Homo sapiens)
# Construct: purchased PerkinElmer BioSignal #RBHGHSM, lot#1887; host or cells: HEK-293, stably transfected
# Sequence (Q92847 whole entry): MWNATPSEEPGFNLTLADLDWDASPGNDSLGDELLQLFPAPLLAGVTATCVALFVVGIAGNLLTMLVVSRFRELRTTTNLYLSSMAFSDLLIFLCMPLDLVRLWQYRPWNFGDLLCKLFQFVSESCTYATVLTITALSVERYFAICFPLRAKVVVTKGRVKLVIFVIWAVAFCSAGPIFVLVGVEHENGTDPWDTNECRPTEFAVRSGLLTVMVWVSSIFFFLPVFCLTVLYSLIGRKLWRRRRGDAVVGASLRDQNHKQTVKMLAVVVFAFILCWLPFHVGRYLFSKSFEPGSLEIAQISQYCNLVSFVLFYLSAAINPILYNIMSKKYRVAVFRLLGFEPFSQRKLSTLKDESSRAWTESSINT
# assay_info: Competitive radioligand binding assay (ghrelin receptor), [125I]-ghrelin displacement
# study_conditions: Table 3B; binding at human ghrelin receptor, [125I]-ghrelin displacement; read-out: Ki
pKi: −log10 of the molar value.

{"columns": ["molecule", "pKi"],
 "data": [
  ["CC1C(=O)NC(Cc2ccc(F)cc2)C(=O)NCCCc2ccc(NS(C)(=O)=O)cc2OCCNC(C2CC2)C(=O)N1C (centres unmarked) [compound 357]", "5.00 to 7.00"],
  ["O=C1NC2(CCCC2)C(=O)NC(Cc2cccc(Cl)c2)C(=O)NCC=Cc2ccccc2OCCNC1Cc1ccc(O)cc1 (centres unmarked) [compound 301]", "> 7.00"],
  ["O=C1NC2(CCCC2)C(=O)NC(Cc2cccc(Cl)c2)C(=O)NCC=Cc2ccccc2OCCNC1Cc1ccsc1 (centres unmarked) [compound 341]", "> 7.00"],
  ["CCC(C)C1NCCCCCCCCNC(=O)C(Cc2cccc(Cl)c2)NC(=O)C2(CCCC2)NC1=O (centres unmarked) [compound 363]", "5.00 to 7.00"],
  ["CC1C(=O)NC(Cc2ccc(F)cc2)C(=O)NCCCCCOCCNC(C2CC2)C(=O)N1C (centres unmarked) [compound 398]", "5.00 to 7.00"],
  ["CC1C(=O)NC(Cc2ccc(F)cc2)C(=O)NCCCc2cc(NS(C)(=O)=O)ccc2OCCNC(C2CC2)C(=O)N1C (centres unmarked) [compound 374]", "> 7.00"],
  ["CCC(C)C1NCCOc2ccccc2C=CCNC(=O)C(Cc2cccc(C#N)c2)NC(=O)C2(CCCC2)NC1=O (centres unmarked) [compound 329]", "> 7.00"],
  ["CCC(C)C1NCc2ccccc2CCCCCNC(=O)C(Cc2cccc(Cl)c2)NC(=O)C2(CCCC2)NC1=O (centres unmarked) [compound 362]", "5.00 to 7.00"],
  ["CC1C(=O)NC(Cc2c(F)c(F)c(F)c(F)c2F)C(=O)NCCCc2ccccc2OCCNC(C2CC2)C(=O)N1C (centres unmarked) [compound 318]", "8.00 to 10.00"],
  ["CCC(C)C1NCCCCCCNC(=O)C(Cc2cccc(Cl)c2)NC(=O)C2(CCCC2)NC1=O (centres unmarked) [compound 365]", "5.00 to 7.00"],
  ["CCC(C)C1NCCCCCCCNC(=O)C(Cc2cccc(Cl)c2)NC(=O)C2(CCCC2)NC1=O (centres unmarked) [compound 366]", "5.00 to 7.00"],
  ["COCC1NCCOc2ccccc2C=CCNC(=O)C(Cc2cccc(Cl)c2)NC(=O)C2(CCCC2)NC1=O (centres unmarked) [compound 344]", "5.00 to 7.00"],
  ["CC1C(=O)NC(Cc2ccc(F)cc2)C(=O)NCCCc2cc(F)ccc2OCCNC(C2CC2)C(=O)N1C (centres unmarked) [compound 355]", "> 7.00"],
  ["CCC(C)C1NCCOc2cccnc2CCCNC(=O)C(Cc2cccc(Cl)c2)NC(=O)C2(CCCC2)NC1=O (centres unmarked) [compound 385]", "5.00 to 7.00"],
  ["CCC(C)C1NCCOc2ccccc2CC(C)CNC(=O)C(Cc2cccc(Cl)c2)NC(=O)C2(CCCC2)NC1=O (centres unmarked) [compound 392]", "> 7.00"],
  ["CCC(C)C1NCCOCC=CCCNC(=O)C(Cc2cccc(Cl)c2)NC(=O)C2(CCCC2)NC1=O (centres unmarked) [compound 360]", "5.00 to 7.00"],
  ["CC1C(=O)NC(Cc2ccc(F)cc2)C(=O)NCC#Cc2ccccc2OCCNC(C2CC2)C(=O)N1C (centres unmarked) [compound 354]", "> 7.00"],
  ["CCC(C)C1NCCCc2ccccc2CCCCNC(=O)C(Cc2cccc(Cl)c2)NC(=O)C2(CCCC2)NC1=O (centres unmarked) [compound 371]", "> 7.00"],
  ["CCC(C)C1NCCOc2ccc(F)cc2CCCNC(=O)C(Cc2cccc(Cl)c2)NC(=O)C2(CCCC2)NC1=O (centres unmarked) [compound 382]", "> 7.00"],
  ["CCC(C)C1NCCOc2cc(F)ccc2CCCNC(=O)C(Cc2cccc(Cl)c2)NC(=O)C2(CCCC2)NC1=O (centres unmarked) [compound 383]", "5.00 to 7.00"],
  ["CCC(C)C1NCCOc2ccccc2C=CCNC(=O)C(Cc2cccc(Br)c2)NC(=O)C2(CCCC2)NC1=O (centres unmarked) [compound 326]", "> 7.00"],
  ["CCC(C)C1NCCOCCOCCNC(=O)C(Cc2cccc(Cl)c2)NC(=O)C2(CCCC2)NC1=O (centres unmarked) [compound 393]", "5.00 to 7.00"],
  ["CCC(C)C1NCCCc2ccccc2C=CCCNC(=O)C(Cc2cccc(Cl)c2)NC(=O)C2(CCCC2)NC1=O (centres unmarked) [compound 361]", "5.00 to 7.00"],
  ["C[C@@H]1C(=O)N[C@H](Cc2ccc(O)c(C(C)(C)C)c2)C(=O)NCCCc2ccccc2OCCN[C@@H](C2CC2)C(=O)N1C [compound 311]", "> 7.00"],
  ["CCC(C)C1NCCCNCCNC(=O)C(Cc2cccc(Cl)c2)NC(=O)C2(CCCC2)NC1=O (centres unmarked) [compound 390]", "5.00 to 7.00"],
  ["CC1C(=O)NC(Cc2ccc(F)cc2)C(=O)NCCOc2cccc(c2)OCCNC(C2CC2)C(=O)N1C (centres unmarked) [compound 377]", "5.00 to 7.00"],
  ["CCC(C)C1NCCOc2ccc(Cl)cc2CCCNC(=O)C(Cc2cccc(Cl)c2)NC(=O)C2(CCCC2)NC1=O (centres unmarked) [compound 384]", "5.00 to 7.00"],
  ["CC1CNC(=O)C(Cc2ccc(F)cc2)NC(=O)C(C)N(C)C(=O)C(C2CC2)NCCOc2ccccc2C1 (centres unmarked) [compound 376]", "5.00 to 7.00"],
  ["CC1C(=O)NC(Cc2ccc(F)cc2)C(=O)NCCC=CCOCCNC(C2CC2)C(=O)N1C (centres unmarked) [compound 307]", "5.00 to 7.00"]
]}

The origin of these recorded values is patent USRE42013E1.
